B1: TRIM39 (parent)
chain: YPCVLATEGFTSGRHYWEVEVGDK

- Variants of: B1
- protocolDescription: protein stability index of a GFP-peptide fusion (GPS, HEK-293T) (PSI 1-6); higher = more stable;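 also: lentivirally expressed fusions sorted by FACS into six bins by GFP to DsRed ratio, PSI derived from sequencing read proportions per bin multiplied by bin number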
- measurementContext: c terminus: a fixed tail appended
Record form. Attribute: protein stability index. Fill in for each entry.
Answers are plain numbers.

Looking up YPCVLATGGFTSGRHYWEVEVGDK [E8G] , I found its protein stability index recorded as 2.09

Note to self: protein stability index recorded for YPCVLATEGFTSGRHYWEVHVGDK [E20H] was 1.58

For record YPCVLATEGFTSGRHKWEVEVGDK [Y16K] the listed protein stability index is 2.38

Looking up YPCVLATEGFTSGRFYWEVEVGDK [H15F] , I see its protein stability index listed as 1.9

Note to self: protein stability index recorded for YPCVLATEGFTSGRHLWEVEVGDK [Y16L] was 1.76

Briefly, protein stability index measured for PPCVLATEGFTSGRHYWEVEVGDK [Y1P] : 4.24

# batch size: 6; output protein stability index per entry
1. YPCVLATEGFTSGRHYWEVEVEDK [G22E]
2. YPCVQATEGFTSGRHYWEVEVGDK [L5Q]
3. YPCVLATENFTSGRHYWEVEVGDK [G9N]
4. YPCVLATEEFTSGRHYWEVEVGDK [G9E]
5. YPCVLATEGFTSGRHYWEVLVGDK [E20L]
6. YPCVLATEGFTSGRHYWEREVGDK [V19R]

Result:
1: 1.88; 2: 2.31; 3: 1.99; 4: 2.2; 5: 2.32; 6: 2.4

Your task in this section: give protein stability index for each listed record.
1. TPCVLATEGFTSGRHYWEVEVGDK [Y1T]
2. YPCVLATEGFTSGRHYWEVETGDK [V21T]
3. YPCVLATEGFTLGRHYWEVEVGDK [S12L]
4. YPCVLATEGFTSGRHYWEHEVGDK [V19H]

Result:
[3.78, 1.6, 1.97, 2.85]
